Tested On: T1, human DLL3 on DLL3-expressing tumor cell lines (human, UniProt Q9NYJ7 27-618)
T1 sequence: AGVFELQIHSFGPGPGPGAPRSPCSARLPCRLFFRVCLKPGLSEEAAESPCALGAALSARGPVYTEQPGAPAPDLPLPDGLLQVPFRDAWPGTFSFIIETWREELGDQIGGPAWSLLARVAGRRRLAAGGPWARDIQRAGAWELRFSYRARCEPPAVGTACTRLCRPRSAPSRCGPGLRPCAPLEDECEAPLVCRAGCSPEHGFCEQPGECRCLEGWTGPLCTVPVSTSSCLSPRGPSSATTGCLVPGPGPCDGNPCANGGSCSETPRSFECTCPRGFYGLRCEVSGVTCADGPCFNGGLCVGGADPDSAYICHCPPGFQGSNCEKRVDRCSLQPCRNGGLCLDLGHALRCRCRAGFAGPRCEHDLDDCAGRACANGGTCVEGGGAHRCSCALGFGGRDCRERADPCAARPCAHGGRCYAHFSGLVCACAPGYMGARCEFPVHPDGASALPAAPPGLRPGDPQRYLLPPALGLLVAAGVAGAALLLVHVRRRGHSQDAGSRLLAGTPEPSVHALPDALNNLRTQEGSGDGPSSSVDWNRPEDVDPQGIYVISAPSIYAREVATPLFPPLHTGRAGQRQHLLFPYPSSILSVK
Assay Protocol: cell-based or functional assay
Measured Attribute: DMS-153 TDCC EC50

Solved cases (3 shown):
- Binder: "2H02 anti-DLL3 trispecific protein (other, not shown: linker 1808, anti-albumin sdAb, linker 1808, anti-CD3 fragment, His6 1819) EVQLVESGGGLVQPGGSLTLSCVASGSTSSINAMAWYRRAPGKQRELAAGISSDGSKVYADSVKGRFTISRDNAKNSVYLQMNSLRAEDTAVYYCYYFHTVSGSSMRYWGQGTLVTVSS"
  DMS-153 TDCC EC50: "0.031 nM"
- Binder: "4D09 anti-DLL3 trispecific protein (other, not shown: linker 1808, anti-albumin sdAb, linker 1808, anti-CD3 fragment, His6 1819) EVQLVESGGGLVQPGGSLTLSCAASGSSVKFLSMAWYRQAPGKKRELVAGISADGSTDYILSVKGRFTISRDNAKNSVYLQMNSLRAEDTAVYYCYAYEWTTRYTYWGQGTLVTVSS"
  DMS-153 TDCC EC50: "0.052 nM"
- Binder: "2A04 anti-DLL3 trispecific protein (other, not shown: linker 1808, anti-albumin sdAb, linker 1808, anti-CD3 fragment, His6 1819) EVQLVESGGGLVQPGGSLTLSCVASGSTSSINAMAWYRRAPGKQRELVAGISSDGSKVYTDSVKGRFTISRDNAKNSVYLQMNSLRAEDTAVYYCYYFRTTSGSSMRYWGQGTLVTVSS"
  DMS-153 TDCC EC50: "0.081 nM"

[Q] Return the recorded DMS-153 TDCC EC50 value; entry: 1C03 anti-DLL3 trispecific protein (other, not shown: linker 1808, anti-albumin sdAb, linker 1808, anti-CD3 fragment, His6 1819) EVQLVESGGGLVQPGGSLTLSCVASGSTSSINAMAWYRRAPGKQRELVAGISSDNSKVYADSVKGRFTISRDNAKNSVYLQMNSLRAEDTAVYYCYYFRTVGGSSMRYWGQGTLVTVSS
[A] 0.096 nM
